# EXPERIMENTAL DETAILS: Pharmacokinetic study, 3 mg/kg IV, 10 mg/kg PO and 10 mg/kg PO QD*3, plasma, liver and bone
# Format: in vivo, mouse
# TEST SETTINGS: female, C57BL/6J, mouse, liver, po, 10 mg/kg, liver, PO (QD*3), 3 h, individual animals; read-out: Liver 6641 PO (QD*3) concentration
READOUT TYPE: concentration at 3 h
# output: number + unit

Data request: Please give measured concentration at 3 h of the following entry: O=C1Nc2ccc(-c3cc(C(F)(F)F)cc(C(F)(F)F)c3)cc2C(=O)N2CCN(C(=O)COc3ccc(OC(F)(F)F)cc3I)C[C@@H]12 [compound 6641]
Data returned: 1900 ng/g

---

# EXPERIMENTAL DETAILS: Pharmacokinetic study, 3 mg/kg IV, 10 mg/kg PO and 10 mg/kg PO QD*3, plasma, liver and bone
# Format: in vivo, mouse
# TEST SETTINGS: female, C57BL/6 J, mouse, plasma, po, 10 mg/kg, PO (QD*3), Time 1 h; individual values (1)-(3); read-out: Plasma concentration
READOUT TYPE: concentration at 1 h (ng/mL)
Report as a plain number; the unit ng/mL is understood.

Data request: Kindly indicate its recorded concentration at 1 h. Item: `O=C1Nc2ccc(-c3cc(C(F)(F)F)cc(C(F)(F)F)c3)cc2C(=O)N2CCN(C(=O)COc3ccc(OC(F)(F)F)cc3I)C[C@@H]12`
Data returned: 336

---

# EXPERIMENTAL DETAILS: Pharmacokinetic study, 3 mg/kg IV, 10 mg/kg PO and 10 mg/kg PO QD*3, plasma, liver and bone
# Type: in vivo, mouse
# TEST SETTINGS: female, C57BL/6J, mouse, bone (long bones), po, 10 mg/kg, bone, PO, 3 h, individual animals; read-out: Bone 6641 PO concentration
READOUT TYPE: concentration at 3 h (ng/g)
Form entry: value (ng/g) — number only.

Data request: For the compound `O=C1Nc2ccc(-c3cc(C(F)(F)F)cc(C(F)(F)F)c3)cc2C(=O)N2CCN(C(=O)COc3ccc(OC(F)(F)F)cc3I)C[C@@H]12` , report concentration at 3 h.
Data returned: 140

---

# EXPERIMENTAL DETAILS: Pharmacokinetic study, single 30 mg/kg IP dose, plasma, liver and bone
# Type: in vivo, mouse
# TEST SETTINGS: female, C57BL/6J, mouse, plasma, ip, 30 mg/kg, IP, Time 0.25 h; individual values (1)-(3); read-out: Plasma concentration
READOUT TYPE: concentration at 0.25 h (ng/mL)
Your answer should be a plain number; it is taken to be in ng/mL.

Data request: Identify measured concentration at 0.25 h associated with `O=C1Nc2ccc(-c3cc(C(F)(F)F)cc(C(F)(F)F)c3)cc2C(=O)N2CCN(C(=O)COc3ccc(OC(F)(F)F)cc3I)C[C@@H]12`
Data returned: 132

---

# EXPERIMENTAL DETAILS: Pharmacokinetic study, 3 mg/kg IV, 10 mg/kg PO and 10 mg/kg PO QD*3, plasma, liver and bone
# Type: in vivo, mouse
# TEST SETTINGS: female, C57BL/6 J, mouse, plasma, po, 10 mg/kg, PO, Time 7 h; individual values (1)-(3); read-out: Plasma concentration
READOUT TYPE: concentration at 7 h (ng/mL)
Number only, in ng/mL; omit the unit.

Data request: Tell us which concentration at 7 h value is on record for `O=C1Nc2ccc(-c3cc(C(F)(F)F)cc(C(F)(F)F)c3)cc2C(=O)N2CCN(C(=O)COc3ccc(OC(F)(F)F)cc3I)C[C@@H]12`
Data returned: 134

---

# EXPERIMENTAL DETAILS: Pharmacokinetic study, 3 mg/kg IV, 10 mg/kg PO and 10 mg/kg PO QD*3, plasma, liver and bone
# Assay type: in vivo, mouse
# TEST SETTINGS: female, C57BL/6 J, mouse, plasma, iv, 3 mg/kg, IV, Time 0.083 h; individual values (1)-(3); read-out: Plasma concentration
READOUT TYPE: concentration at 0.083 h (ng/mL)
API: value field is a number in ng/mL; no unit string.

Data request: Quick one: give measured concentration at 0.083 h for O=C1Nc2ccc(-c3cc(C(F)(F)F)cc(C(F)(F)F)c3)cc2C(=O)N2CCN(C(=O)COc3ccc(OC(F)(F)F)cc3I)C[C@@H]12 [compound 6641]
Data returned: 2030

---

# EXPERIMENTAL DETAILS: Pharmacokinetic study, 3 mg/kg IV, 10 mg/kg PO and 10 mg/kg PO QD*3, plasma, liver and bone
# Format: in vivo, mouse
# TEST SETTINGS: female, C57BL/6J, mouse, liver, po, 10 mg/kg, liver, PO, 3 h, individual animals; read-out: Liver 6641 PO concentration
READOUT TYPE: concentration at 3 h
Remember to quote the unit after the number.

Data request: Output measured concentration at 3 h for this item: `O=C1Nc2ccc(-c3cc(C(F)(F)F)cc(C(F)(F)F)c3)cc2C(=O)N2CCN(C(=O)COc3ccc(OC(F)(F)F)cc3I)C[C@@H]12`
Data returned: 1940 ng/g

---

# EXPERIMENTAL DETAILS: Pharmacokinetic study, 3 mg/kg IV, 10 mg/kg PO and 10 mg/kg PO QD*3, plasma, liver and bone
# Format: in vivo, mouse
# TEST SETTINGS: female, C57BL/6 J, mouse, plasma, po, 10 mg/kg, PO, Time 0.25 h; individual values (1)-(3); read-out: Plasma concentration
READOUT TYPE: concentration at 0.25 h
# do not omit the unit; it follows the number

Data request: Provide measured concentration at 0.25 h value, entry: O=C1Nc2ccc(-c3cc(C(F)(F)F)cc(C(F)(F)F)c3)cc2C(=O)N2CCN(C(=O)COc3ccc(OC(F)(F)F)cc3I)C[C@@H]12 [compound 6641]
Data returned: 43.8 ng/mL

---

# EXPERIMENTAL DETAILS: Pharmacokinetic study, 3 mg/kg IV, 10 mg/kg PO and 10 mg/kg PO QD*3, plasma, liver and bone
# Type: in vivo, mouse
# TEST SETTINGS: female, C57BL/6 J, mouse, liver, iv, 3 mg/kg, liver, IV, 0.083 h, individual animals; read-out: Liver 6641 IV concentration
READOUT TYPE: concentration at 0.083 h (ng/g)
Form entry: value (ng/g) — number only.

Data request: Provide concentration at 0.083 h value for the following compound: O=C1Nc2ccc(-c3cc(C(F)(F)F)cc(C(F)(F)F)c3)cc2C(=O)N2CCN(C(=O)COc3ccc(OC(F)(F)F)cc3I)C[C@@H]12 [compound 6641]
Data returned: 26000

---

# EXPERIMENTAL DETAILS: Pharmacokinetic study, 3 mg/kg IV, 10 mg/kg PO and 10 mg/kg PO QD*3, plasma, liver and bone
# Format: in vivo, mouse
# TEST SETTINGS: female, C57BL/6J, mouse, liver, po, 10 mg/kg, liver, PO, 1 h, individual animals; read-out: Liver 6641 PO concentration
READOUT TYPE: concentration at 1 h (ng/g)
Express your answer in ng/g, writing the number without its unit.

Data request: Supply reported concentration at 1 h belonging to this compound: `O=C1Nc2ccc(-c3cc(C(F)(F)F)cc(C(F)(F)F)c3)cc2C(=O)N2CCN(C(=O)COc3ccc(OC(F)(F)F)cc3I)C[C@@H]12`
Data returned: 3040

---

# TGT: WT RXFP2 (Homo sapiens)
# Construct: FLAG (N); expressed in transfected cells; host or cells: HEK293T (transient)
# Sequence (Q8WXD0 whole entry): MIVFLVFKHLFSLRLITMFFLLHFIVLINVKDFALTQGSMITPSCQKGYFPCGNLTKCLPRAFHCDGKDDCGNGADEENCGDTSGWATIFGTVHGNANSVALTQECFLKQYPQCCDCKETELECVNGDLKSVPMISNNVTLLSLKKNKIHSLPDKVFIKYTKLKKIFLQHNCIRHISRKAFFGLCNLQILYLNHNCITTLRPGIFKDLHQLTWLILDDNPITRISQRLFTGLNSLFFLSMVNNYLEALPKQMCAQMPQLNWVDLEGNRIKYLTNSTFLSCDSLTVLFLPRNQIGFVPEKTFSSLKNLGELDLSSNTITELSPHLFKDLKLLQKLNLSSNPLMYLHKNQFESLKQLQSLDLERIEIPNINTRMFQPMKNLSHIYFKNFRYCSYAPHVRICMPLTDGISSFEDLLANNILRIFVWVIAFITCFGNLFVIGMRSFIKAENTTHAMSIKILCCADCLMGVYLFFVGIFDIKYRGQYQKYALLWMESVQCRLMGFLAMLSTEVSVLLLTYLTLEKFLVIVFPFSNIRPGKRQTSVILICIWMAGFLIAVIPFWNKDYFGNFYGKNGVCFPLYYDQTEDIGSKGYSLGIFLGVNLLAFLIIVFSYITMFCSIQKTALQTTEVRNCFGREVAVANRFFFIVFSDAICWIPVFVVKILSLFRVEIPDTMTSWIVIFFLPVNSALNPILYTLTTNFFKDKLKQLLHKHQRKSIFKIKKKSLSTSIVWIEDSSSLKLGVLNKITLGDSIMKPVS
# EXPERIMENTAL DETAILS: HTRF cAMP assay in HEK293T cells transiently transfected with WT RXFP2
# Type: cell-based
# TEST SETTINGS: 6641, mean (± SEM) of 3, read-out: EC50 (AVERAGE)
READOUT TYPE: EC50 (µM)
The reply should be a number in µM, with the unit left off.

Data request: Quote EC50 reported for `O=C1Nc2ccc(-c3cc(C(F)(F)F)cc(C(F)(F)F)c3)cc2C(=O)N2CCN(C(=O)COc3ccc(OC(F)(F)F)cc3I)C[C@@H]12` please.
Data returned: 0.012

---

# EXPERIMENTAL DETAILS: Pharmacokinetic study, 3 mg/kg IV, 10 mg/kg PO and 10 mg/kg PO QD*3, plasma, liver and bone
# Type: in vivo, mouse
# TEST SETTINGS: female, C57BL/6J, mouse, bone (long bones), iv, 3 mg/kg, bone, IV, 0.5 h, individual animals; read-out: Bone 6641 IV concentration
READOUT TYPE: concentration at 0.5 h (ng/g)
Output spec: scalar in ng/g, unitless text.

Data request: Quick one: give measured concentration at 0.5 h for O=C1Nc2ccc(-c3cc(C(F)(F)F)cc(C(F)(F)F)c3)cc2C(=O)N2CCN(C(=O)COc3ccc(OC(F)(F)F)cc3I)C[C@@H]12 [compound 6641]
Data returned: 711
